- Measured target: Full-length human MNK1 (Homo sapiens, UniProt Q9BUB5, T385D)
- Construct: GST (N); purchased Carna Biosciences 02-145; host or cells: baculovirus expression system
- Sequence (Q9BUB5 1-424 isoform Q9BUB5-2 T344D): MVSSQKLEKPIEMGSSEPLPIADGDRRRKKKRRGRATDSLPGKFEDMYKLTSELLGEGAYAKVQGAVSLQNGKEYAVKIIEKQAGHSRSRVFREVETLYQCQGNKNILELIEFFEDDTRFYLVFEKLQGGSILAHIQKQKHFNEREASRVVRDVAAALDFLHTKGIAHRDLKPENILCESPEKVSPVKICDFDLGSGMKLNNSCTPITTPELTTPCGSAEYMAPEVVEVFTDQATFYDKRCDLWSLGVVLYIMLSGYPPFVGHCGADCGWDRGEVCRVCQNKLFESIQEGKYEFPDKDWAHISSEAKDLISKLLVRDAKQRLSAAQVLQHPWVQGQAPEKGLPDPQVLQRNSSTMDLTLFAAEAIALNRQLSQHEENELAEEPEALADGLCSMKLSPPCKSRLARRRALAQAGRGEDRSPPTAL
- Test: MNK1 biochemical IC50 assay (Caliper Mobility Shift Assay)
- Condition info: read-out: P(IC50) MNK1 (converted)
Assay metric: IC50 (nM)

Worked cases, IC50 given:
* CC(C)CCNC(=O)c1nc2c(N3CC(CCN)c4ccccc43)ncnc2s1 (centres unmarked) [Example 165] | 10
* CN(C)CCCNC(=O)c1nc2c(N3CC(C)(C)c4ccccc43)ncnc2s1 [Example 25] | 6.31

P. NCC1CN(c2ncnc3sc(C(=O)NC4CCOCC4)nc23)c2ccccc21 (centres unmarked) [Example 119]
Q. O=C(NC1CCOCC1)c1nc2c(N3CC(CCN4CCOCC4)c4ccccc43)ncnc2s1 (centres unmarked) [Example 154]
*Q* Which is greater in IC50, the first item P or the second item Q ? Pick one and reply with its label.
*A* Q
(Q: 79.4 nM, P: 12.6 nM)

A. O=C(NCCN1CCNCC1)c1nc2c(N3CCc4cc(F)ccc43)ncnc2s1 [Example 79]
B. O=C(NCC1CCNCC1)c1nc2c(Nc3ccc4[nH]ncc4c3)ncnc2s1 [Example 50]
C. CNC(=O)c1nc2c(N3CCc4cc(F)ccc43)ncnc2s1 [Example 69]
D. CC(C)Oc1cc(F)ccc1Nc1ncnc2sc(C(=O)NC3CCN(C)CC3)nc12 [Example 32]
*Q* Exam item: list the entries in increasing order of IC50. Your task in answering is to list the labels in the requested order.
*A* A, C, B, D

###

- Tested on: phosphorylation of eIF4E at ser209 in MV4.11 cell line
- Test: MNK cellular activity phospho-eIF4E detection assay (Alphascreen Surefire)
- Format: cell-based
- Condition info: Homo sapiens; MV4.11 cell line, phospho-eIF4E (ser209) Alphascreen Surefire; read-out: P(IC50) elF4E (converted)
Assay metric: IC50 (nM)

Worked cases, IC50 given:
- CC1(C)CN(c2ncnc3sc(C(=O)NCCCO)nc23)c2ccccc21 [Example 163]: 5.01
- CC1(CCO)CN(c2ncnc3sc(C(=O)NC4CCOCC4)nc23)c2ccccc21 (stereo not drawn) [Example 113]: 39.8
- CC1Cc2ccccc2N1c1ncnc2sc(C(=O)NCC3CCNCC3)nc12 (stereo in doubt) [Example 134]: 39.8
- O=C(NCC(O)CO)c1nc2c(N3CCc4ccccc43)ncnc2s1 (stereo not drawn) [Example 104]: 10
- CNCCC1(C)CN(c2ncnc3sc(C(=O)NC4CCOCC4)nc23)c2ccccc21 (stereo not drawn) [Example 118]: 251

P. CNCCCNC(=O)c1nc2c(N3CCc4ccccc43)ncnc2s1 [Example 97]
Q. OCc1nc2c(N3CCc4cc(F)ccc43)ncnc2s1 [Example 81]
R. O=C(NC1CCOCC1)c1nc2c(N3CC(CCN4CCOCC4)c4cc(F)ccc43)ncnc2s1 (stereo not drawn) [Example 151]
*Q* // sort entries: IC50, high to low Your task in answering is to list the labels in the requested order.
*A* Q, R, P
(Q: 100 nM, R: 31.6 nM, P: 15.8 nM)

###

- Measured target: Full-length human MNK1 (Homo sapiens, UniProt Q9BUB5, T385D)
- Construct: GST (N); purchased Carna Biosciences 02-145; host or cells: baculovirus expression system
- Test: MNK1 biochemical IC50 assay (Caliper Mobility Shift Assay)
Assay metric: pIC50
Value format note: pIC50 is -log10 of concentration (mol/L); just state the number.

* O=C(NCCCN1CCCC1)c1nc2c(N3CCc4cc(F)ccc43)ncnc2s1 | 8.70

*Q* Consider the molecule shown here: `CC(C)Oc1cc(F)ccc1Nc1ncnc2sc(C(=O)NCC3CCNCC3)nc12` What is its recorded pIC50?
*A* 7.30

###

- Tested on: phosphorylation of eIF4E at ser209 in MV4.11 cell line
- Test: MNK cellular activity phospho-eIF4E detection assay (Alphascreen Surefire)
- Type: cell-based
- Condition info: Homo sapiens, MV4-11, read-out: P(IC50) elF4E
Assay metric: IC50 (nM)
Give your result in nM as a bare value.

*Q* Lookup: IC50 / phosphorylation of eIF4E at ser209 in MV4.11 cell line / CC1(C)CN(c2ncnc3sc(C(=O)NCC4CCNCC4)nc23)c2ccccc21 [Example 161]
*A* 3.16

###

- Measured target: Full-length human MNK1 (Homo sapiens, UniProt Q9BUB5, T385D)
- Construct: GST (N); purchased Carna Biosciences 02-145; host or cells: baculovirus expression system
- Test: MNK1 biochemical IC50 assay (Caliper Mobility Shift Assay)
- Condition info: read-out: P(IC50) MNK1 (converted)
Assay metric: IC50 (nM)

P. CC(C)Oc1cc(F)ccc1Nc1ncnc2scnc12
Q. C[C@H]1Cc2ccccc2N1c1ncnc2sc(C(=O)NC3CCNCC3)nc12
R. O=C(NC1CCNCC1)c1nc2c(N3CCc4cc(F)ccc43)ncnc2s1
S. CN(C)CCCNC(=O)c1nc2c(Nc3ccc(F)cc3O[C@@H]3CCCOC3)ncnc2s1
*Q* Ranking field: IC50; order: falling. Your task in answering is to list the labels in the requested order.
*A* P, S, Q, R

a. C[C@@H]1Cc2ccccc2N1c1ncnc2sc(C(=O)NC3CCNCC3)nc12
b. O=C(NCC1CCNCC1)c1nc2c(N3CC(CCO)c4cc(F)ccc43)ncnc2s1 (stereo not drawn)
c. CC(=O)Nc1ccc2c(c1)CCN2c1ncnc2sc(C(=O)NC3CCN(C)CC3)nc12
d. CC1(C)CN(c2ncnc3sc(C(=O)NCCCN4CCCC4)nc23)c2ccccc21
*Q* Exam item: list the entries in increasing order of IC50. Your task in answering is to list the labels in the requested order.
*A* b, d, a, c
(b: 2.51 nM, d: 6.31 nM, a: 15.8 nM, c: 501 nM)

###

- Tested on: phosphorylation of eIF4E at ser209 in MV4.11 cell line
- Test: MNK cellular activity phospho-eIF4E detection assay (Alphascreen Surefire)
- Format: cell-based
- Condition info: Homo sapiens; MV4.11 cell line, phospho-eIF4E (ser209) Alphascreen Surefire; read-out: P(IC50) elF4E (converted)
Assay metric: IC50 (nM)

* CC(C)Oc1cc(F)ccc1Nc1ncnc2sc(C(=O)NCC(O)CO)nc12 (centres unmarked) | 50.1

I. CC(C)CCNC(=O)c1nc2c(N3CC(CCN)c4ccccc43)ncnc2s1 (centres unmarked)
II. Fc1ccc2c(c1)CCN2c1ncnc2scnc12
III. CNC(=O)c1nc2c(N3CC(CCO)c4ccccc43)ncnc2s1 (centres unmarked)
IV. NCCC1CN(c2ncnc3sc(C(=O)NC4CC4)nc23)c2ccccc21 (centres unmarked)
*Q* Exam item: list the entries in increasing order of IC50. Your task in answering is to list the labels in the requested order.
*A* IV, III, I, II

###

- Measured target: Full-length human MNK1 (Homo sapiens, UniProt Q9BUB5, T385D)
- Construct: GST (N); purchased Carna Biosciences 02-145; host or cells: baculovirus expression system
- Test: MNK1 biochemical IC50 assay (Caliper Mobility Shift Assay)
- Condition info: read-out: P(IC50) MNK1 (converted)
Assay metric: IC50 (nM)

Worked cases, IC50 given:
• O=C(NCC1CCNCC1)c1nc2c(N3c4ccccc4C[C@@H]3CO)ncnc2s1 = 398
• O=C(NC1CCOCC1)c1nc2c(N3CCc4cc(Cl)cc(F)c43)ncnc2s1 = 63.1
• CC(C)(O)c1nc2c(N3CCc4cc(F)ccc43)ncnc2s1 = 31.6
• CNCCCNC(=O)c1nc2c(Nc3ccc(F)cc3OC(C)C)ncnc2s1 = 63.1
• OCc1nc2c(N3CCc4cc(F)ccc43)ncnc2s1 = 39.8
• CN(C)CCCNC(=O)c1nc2c(N3CCc4cc(F)ccc43)ncnc2s1 = 2.51
• CN(C)CCCNC(=O)c1nc2c(Nc3ccc(F)cc3O[C@@H]3CCCC[C@H]3O)ncnc2s1 = 794
• CC(C)(O)CC1CN(c2ncnc3sc(C(=O)NCC4CCNCC4)nc23)c2ccccc21 (stereo not drawn) = 15.8

A. O=C(NC1CCNCC1)c1nc2c(N3CCc4ccccc43)ncnc2s1
B. CN(C)CCC1CN(c2ncnc3sc(C(=O)NC4CCOCC4)nc23)c2ccccc21 (stereo not drawn)
*Q* Returns: the label, A or B , whose recorded IC50 is the lower number. Pick one and reply with its label.
*A* A
(A: 3.16 nM, B: 100 nM)

A. CC(C)Oc1cc(F)ccc1Nc1ncnc2sc(C(=O)NCCC(=O)O)nc12
B. CC(C)(O)CC1CN(c2ncnc3sc(C(=O)NCC4CCNCC4)nc23)c2ccc(F)cc21 (stereo not drawn)
*Q* Which is greater in IC50, the first item A or the second item B ? Pick one and reply with its label.
*A* A

a. CNCCC1(C)CN(c2ncnc3sc(C(=O)NC4CCOCC4)nc23)c2ccccc21 (stereo not drawn)
b. CC(C)Oc1cc(F)ccc1Nc1ncnc2sc(C(=O)NCCC3CCN(C)CC3)nc12
*Q* Which is greater in IC50, the first item a or the second item b ? Pick one and reply with its label.
*A* a

a. O=C(NC1CCOCC1)c1nc2c(N3CCc4cccc(F)c43)ncnc2s1
b. CN(C)CCNC(=O)c1nc2c(N3CCc4cc(F)ccc43)ncnc2s1
*Q* Which is greater in IC50, the first item a or the second item b ? Pick one and reply with its label.
*A* a
(a: 126 nM, b: 5.01 nM)

P. O=C(Nc1ccc(Nc2ncnc3sc(C(=O)NCC4CCNCC4)nc23)cc1)Nc1cccc(C(F)(F)F)c1
Q. CC1(CO)CN(c2ncnc3sc(C(=O)NCC4CCNCC4)nc23)c2ccc(F)cc21 (stereo not drawn)
*Q* Returns: the label, P or Q , whose recorded IC50 is the lower number. Pick one and reply with its label.
*A* Q
